Values from ChEMBL document CHEMBL1201862

- System: CAKI-1
- ASSAY_NOTES: NCI tumour cell line growth inhibition, 48 h
Active and inactive are the calls of the source. Rule as the data show it: active = GI50 up to about 1.1 µM and inactive = higher.
Please respond with reported GI50 for every item in the list.

Give one value of GI50 per listed compound.
1. CCSC1=CC2(O)N(CCc3ccc(OC)c(OC)c3)C(=O)CC2(C(=O)OC)CC1=O (centres undefined)
2. O=C(Nc1cccc2cnccc12)c1cc2c(cc1Cl)Sc1nccn1S2(=O)=O
3. NC(=S)C1=C(N)Oc2c(c(=O)oc3ccccc23)C1c1ccc(Br)cc1 (centres undefined)
4. O=CN1CCN(C=S)CC1
5. N#Cc1ccccc1OCCOc1ccccc1C#N

Ans:
70.5 µM (inactive)
25.8 µM (inactive)
> 100 µM (inactive)
> 100 µM (inactive)
> 100 µM (inactive)

Give one value of GI50 per listed compound.
1. CSc1nc(C)cc(N(C)c2ccccc2)n1
2. Cc1ccc(O)c(C(c2ccc(C(c3cc(C)ccc3O)c3cc(C)ccc3O)cc2)c2cc(C)ccc2O)c1

Ans:
1: 33 µM (inactive); 2: 1.56 µM (inactive)

----------
- System: UACC-257
- ASSAY_NOTES: NCI tumour cell line growth inhibition, 48 h
Active and inactive are the calls of the source. Cut-off read from the data, not from the text of the source: active = GI50 up to about 1.1 µM and inactive = higher.
Please respond with reported GI50 for every item in the list.

[[record]]
molecule = "O=[N+]([O-])C(=C/c1cccs1)/C(=C\\c1cccs1)[N+](=O)[O-]"
result = "1.29 µM (inactive)"

[[record]]
molecule = "CS(=O)(=O)CS(=O)(=O)OCCCl"
result = "169 µM (inactive)"

[[record]]
molecule = "CCOC(=O)C(NC(=O)CC)(N1CCN(c2cc3c(cc2F)c(=O)c(C(=O)O)cn3C2CC2)CC1)C(F)(F)F (stereo not given)"
result = "> 100 µM (inactive)"


Give one value of GI50 per listed molecule.
1. O=c1[nH]nc(-c2ccccc2)n1/N=C/c1ccccc1O
2. CCOC(=O)N1N=NC2C3OC(C[C@@]3(C#N)OC(C)=O)[C@H]21 (stereo not given in full)
3. O=C1CCCCC/C1=C\c1ccc([N+](=O)[O-])cc1
4. C=CC(C)(C)C(=C)C(=O)Nc1ccccc1I
5. O=c1cc(-c2ccc(O)cc2)oc2cc(O[C@@H]3O[C@H](CO)[C@@H](O)[C@H](O)[C@H]3O)cc(O)c12
6. COc1cc(/C=C2/SC(c3ccccc3)N(c3ccccc3Cl)C2=O)cc(OC)c1OC (stereo not given)
7. CC(=O)O[C@H]1CC[C@@]2(C)C(=CC[C@H]3C(CC#N)[C@@](C)(C#N)CCC32)C1 (stereo not given in full)
8. COC(=O)c1cc(CC2Cc3cc4c(cc3C2=O)CCC4)cc2c1CCC2 (stereo not given)

Ans:
> 100 µM (inactive)
> 100 µM (inactive)
20.9 µM (inactive)
> 100 µM (inactive)
> 100 µM (inactive)
42.2 µM (inactive)
> 100 µM (inactive)
77.6 µM (inactive)

----------
- Test system: RPMI-8226
- ASSAY_NOTES: NCI tumour cell line growth inhibition, 48 h
Calls of active or inactive are those of the source. Rule as the data show it: active = GI50 up to about 1.1 µM and inactive = higher.
Pick from active, inactive when you respond.

Examples with answers:
[[record]]
molecule = "COc1cc2c(cc1O)N=C[C@@H]1CC[C@@H](O)N1C2=O.COc1cc2c(cc1O)N=C[C@@H]1CC[C@H](O)N1C2=O"
tested_system = "RPMI-8226"
category = "active"

[[record]]
molecule = "Cc1cc(=O)oc2c(C)c3oc(CBr)cc3cc12"
tested_system = "RPMI-8226"
category = "inactive"

[[record]]
molecule = "CN(C(=O)Cc1cccc(N=C=S)c1)[C@H]1CCCC[C@@H]1N1CCCC1"
tested_system = "RPMI-8226"
category = "inactive"


Q: # outcome recorded in this test, key = Nc1nncc2c1c(Br)cn2C1OC(CO)C(O)C1O (stereo not drawn)
Ans: inactive

Q: # outcome recorded in this test, key = CC(=O)c1ccc(-c2ccc(C(C)=O)s2)s1
Ans: inactive

----------
Please respond with reported GI50 for every item in the list.
- Test system: MCF7
- ASSAY_NOTES: NCI tumour cell line growth inhibition, 48 h
The source made the active and inactive calls. No stated cut-off is given here; in the data, active = GI50 up to about 1.1 µM and inactive = higher. Where a SMILES comes first, the peptide text is derived from it. The star is where a group is joined. Cbz = O=C(OCc1ccccc1)*

Example cases with answers are listed next.
[[record]]
molecule = "CC(=O)O[C@H]1C(=O)[C@@]2(C)[C@H]([C@H](OC(=O)c3ccccc3)[C@@]3(O)C[C@H](O)C(C)=C1C3(C)C)[C@]1(OC(C)=O)CO[C@@H]1C[C@@H]2O"
tested_system = "MCF7"
result = "30.4 µM (inactive)"

[[record]]
molecule = "Clc1ccccc1-c1nn2c(CCCCCCCCc3nnc4sc(-c5ccccc5Cl)nn34)nnc2s1"
tested_system = "MCF7"
result = "52.2 µM (inactive)"

[[record]]
molecule = "CCCCN1C(=O)N(c2ccc(OCC)cc2)C2N(CCCC)C1C(C)(C)C2(C)C (centres undefined)"
tested_system = "MCF7"
result = "15.3 µM (inactive)"


Give one value of GI50 per listed molecule.
1. COC(=O)C(CC(C)C)NC(=O)C(CCCNC(=N)N)NC(=O)OCc1ccccc1 (stereo not drawn) (Cbz-Arg-Leu-OMe; configuration not given here)
2. C/C=C\C(CC(=O)NCC(=O)c1c[nH]c2ccccc12)CC(=O)OC (centres undefined)
3. COC(=O)c1cc(CC2Cc3cc4c(cc3C2=O)CCC4)cc2c1CCC2 (centres undefined)
4. CC(C)(C)c1ccc2c(c1)OP1(Oc3c(Cl)cc(Cl)c4cccnc34)(O2)Oc2ccc(C(C)(C)C)cc2O1

Ans:
1: > 100 µM (inactive); 2: > 100 µM (inactive); 3: 45.8 µM (inactive); 4: 4.58 µM (inactive)

Give one value of GI50 per listed molecule.
1. N#CC(c1ccccc1)N1CCCN(C(C#N)c2ccccc2)C1c1ccccc1O (centres undefined)
2. O=C1CCCCC/C1=C\c1ccc([N+](=O)[O-])cc1

Ans:
["> 100 µM (inactive)", "46.3 µM (inactive)"]

----------
Please respond with reported GI50 for every item in the list.
- System: SF-268
- ASSAY_NOTES: NCI tumour cell line growth inhibition, 48 h
Activity calls are given as the source filed them. No stated cut-off is given here; in the data, active = GI50 up to about 1.1 µM and inactive = higher.

[[record]]
compound = "CC(=O)O[C@H]1CC[C@@]2(C)C(=CC[C@H]3C(CC#N)[C@@](C)(C#N)CCC32)C1 (some centres undefined)"
tested_system = "SF-268"
parameter = "GI50"
result = "> 100 µM (inactive)"


Give one value of GI50 per listed compound.
1. CCOC(=O)C(C(=O)Cc1ccccc1)c1ccccc1 (centres undefined)
2. Cc1cc(C)nc(NS(=O)(=O)c2ccc(Nc3c4ccccc4nc4c(C(=O)NCCN(C)C)cccc34)cc2)n1
3. Brc1ccc(-c2[nH]c3ccccc3c2/N=N\c2ccccc2)cc1

Ans:
["> 100 µM (inactive)", "2.57 µM (inactive)", "17.9 µM (inactive)"]

----------
- Test system: U-251
- ASSAY_NOTES: NCI tumour cell line growth inhibition, 48 h
Active and inactive are the calls of the source. Rule as the data show it: active = GI50 up to about 1.1 µM and inactive = higher. *1 amine or outer side, *2 acyl side, *3 side chain or, on linkers, in order; H or OH if unused. Where a SMILES comes first, the peptide text is derived from it. [ ]: non-standard residue; d: D form. The star is where a group is joined. ξ: configuration not given here. X53 = CC(C)C[C@H](N[*:1])C1=N[C@H](C(=O)[*:2])CS1; Ile(3ξ) = CCC(C)[C@H](N)C(=O)O; Allyl(1,1-Me2) = C=CC(C)(C)*
Please respond with reported GI50 for every item in the list.

[[record]]
compound = "N=c1sc2ccccc2n1CC[S-].c1ccc2c(c1)sc1[n+]2CCS1"
result = "15.5 µM (inactive)"

[[record]]
compound = "CCCC[C@@H]1CCN2C[C@@H](O)[C@@H](O)[C@H]2[C@@H]1O"
result = "> 100 µM (inactive)"

[[record]]
compound = "O=C(/C=C/c1ccc(Cl)cc1)c1ccncc1"
result = "44 µM (inactive)"

[[record]]
compound = "COC(=O)C1C(C(=O)OC)C2(OC)c3ccccc3-c3ccccc3C12 (centres undefined)"
result = "42.9 µM (inactive)"

[[record]]
compound = "Cc1cccc(NC(=O)CC(=O)N2N=C(N3c4ccccc4Sc4ccccc43)CC2c2ccccc2)c1 (centres undefined)"
result = "> 100 µM (inactive)"


Give one value of GI50 per listed compound.
1. Cc1ccc2c(c1)SC(c1cc3c(cc1Br)OCO3)S2 (centres undefined)
2. CC1(C)C2CCC3(C2)CS(=O)(=O)N2OC231 (centres undefined)
3. COc1cc(C2S/C(=C/c3ccccc3)C(=O)N2c2ccccc2Cl)cc(OC)c1OC (centres undefined)
4. O=[N+]([O-])/C(C(Cl)=C(Cl)Cl)=C(\Nc1ccccc1)n1nnc2ccccc21
5. C=CC(C)(C)OC[C@@H]1NC(=O)CNC(=O)[C@@H]2CCCN2C(=O)[C@H](C(C)CC)NC(=O)[C@@H]2CSC(=N2)[C@H](CC(C)C)NC1=O (some centres undefined) (cyclo(GS(Allyl(1,1-Me2))[X53][Ile(3ξ)]P))
6. O=C1/C(=C/c2cccc(Br)c2)CSC/C1=C\c1cccc(Br)c1
7. CN(C)CCn1c2c3ccccc3ccc2c2oc(=O)c3ccccc3c21
8. CC(C)c1ccccc1NC(=O)CCc1n[nH]c(=S)o1

Ans:
1: > 31.6 µM (inactive); 2: 34.4 µM (inactive); 3: 22.1 µM (inactive); 4: 29.9 µM (inactive); 5: > 100 µM (inactive); 6: 1.87 µM (inactive); 7: 7.46 µM (inactive); 8: > 75.9 µM (inactive)

Give one value of GI50 per listed compound.
1. C=C1C(=O)O[C@@H]2[C@H](O)[C@@H](C)[C@@H]3C=CC(=O)[C@@]3(C)[C@@H](OC(=O)/C(C)=C/C)[C@H]12
2. NC1=CC(C(=O)c2ccncc2)c2nc3ccccc3nc21 (centres undefined)
3. O/N=C\c1cc(O)c(O)c(/C=N/O)c1
4. NC(=O)c1csc(C2C=CC(CO)O2)n1 (centres undefined)
5. O=CN1CCN(C=S)CC1
6. CNc1ncnc2c1cnn2Cc1cn(COCC(O)CO)nn1 (centres undefined)

Ans:
1. 0.733 µM (active)
2. > 100 µM (inactive)
3. 39 µM (inactive)
4. > 100 µM (inactive)
5. > 100 µM (inactive)
6. > 100 µM (inactive)

Give one value of GI50 per listed compound.
1. Cc1cc2c(C)n[nH]c2c(C(=O)O)c1C
2. CC(=O)c1cccc(Nc2nc3ccc(Cl)cc3c3[nH]c4ccccc4c23)c1
3. COc1cc(C(=O)NO)ccc1O
4. CC1C=C(OC(=O)c2ccccc2)C(=O)C(n2cc(F)c(=O)[nH]c2=O)O1 (centres undefined)
5. Cc1cccc(NC(=O)CSc2nnc(Cc3ccccc3)o2)c1
6. C=C1CC(Cn2cc(Br)c(=O)[nH]c2=O)(c2ccc(Br)cc2)OC1=O (centres undefined)
7. CN(C)C1C(O)=C(C(=O)NCN2CCCC2)C(=O)C2(O)C(O)=C3C(=O)c4c(O)cccc4C(C)(O)C3CC12 (centres undefined)

Ans:
["> 100 µM (inactive)", "2.12 µM (inactive)", "> 100 µM (inactive)", "97.3 µM (inactive)", "> 100 µM (inactive)", "13.3 µM (inactive)", "88.9 µM (inactive)"]

Give one value of GI50 per listed compound.
1. CC1CC[C@@]2(OC1)OC1C[C@H]3[C@@H]4CC[C@H]5CC(OC6OC(CO)C(O)C(OC7OC(CO)C(OC8OC(CO)C(O)C(OC9OC(CO)C(O)C(O)C9O)C8OC8OC(CO)C(O)C(O)C8O)C(O)C7O)C6O)[C@H](O)CC5(C)[C@H]4CCC3(C)C1[C@@H]2C (some centres undefined)
2. Cc1c(-c2ccccc2)c(=O)oc2ccc(Cl)cc12
3. Cc1nc2ccc(NC3OC(CO)C(O)C(O)C3O)cc2c(=O)n1-c1ccccc1 (centres undefined)

Ans:
1: 2.7 µM (inactive); 2: 46.9 µM (inactive); 3: > 100 µM (inactive)
